- Procedure text: NCI Yeast Anticancer Drug Screen. Data for the cln2 rad14 strain (AID 165);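 further: 0% = growth equal to vehicle treated cultures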
- Experimental context: S. cerevisiae cln2 rad14 strain, at 50.0 µM, active compounds read high
The panel holds about 79,000 compounds, 15% with a hit somewhere; the sample as a whole holds those more often.
Reported growth inhibition values follow for various compounds
Endpoint name: growth inhibition (%)

1) CCOS(=O)(=O)c1ccc(C)cc1; -0.95
2) COc1ccc2c(c1OC(C)=O)C1=CC(=O)CCC13CCNC3C2 (stereo not given); 27.2
3) CCOP(=O)(OCC)/C(C#N)=C/c1ccc(OC)cc1; 11.7
4) CCOP(=S)(OCC)Oc1ccc2c(c1)OC(=O)C1(Cl)C2(C)C2(Cl)C(=O)Oc3cc(OP(=S)(OCC)OCC)ccc3C12C (stereo not given); 15.1
5) O=C(NCC(O)CO)c1ccc(N(CCCl)CCCl)c([N+](=O)[O-])c1[N+](=O)[O-] (stereo not given); 8.1
6) CN(C(=O)CCl)c1ccccc1; 11.2
7) Cc1c[nH]cn1.Cc1c[nH]cn1.Cc1c[nH]cn1.Cc1c[nH]cn1.Cc1c[nH]cn1.Cc1c[nH]cn1.N#CS.[Mn+2]; -4.8
8) CCC(/C=N/N=C(N)N)=N\N=C(N)N; -18.4
9) CN(C)P(=S)(CCPc1ccccc1)N(C)C (stereo not given); 2.95
10) CC(=O)Nc1cc(Cl)c([N+](=O)[O-])cc1C; -79.1
11) CCCCCCNP(=O)(OCC)OCC; 6.8
12) O=C(CC(=O)C(F)(F)F)c1cccs1.O=C(CC(=O)C(F)(F)F)c1cccs1.O=C(CC(=O)C(F)(F)F)c1cccs1.[Gd]; -3.25
13) NCC(O)CSP(=O)(O)O (stereo not given); 24.5
14) COc1cc(N=Nc2ccc([N+](=O)[O-])cc2)ccc1N(CCCl)CCCl; 11.2
15) CNC(=O)N1CN(c2ccccc2)C2(CCN(CCCC3(c4ccc(F)cc4)OCCO3)CC2)C1=O; -8.8
16) COc1ccc(Oc2cc3c(cc2OC)CCN(C)C3)cc1; -0.6
17) Cc1cc(NC(=O)Oc2ccc([N+](=O)[O-])cc2)ccc1S(=O)(=O)F; 4
18) N#CCCc1ccccc1; -12.8
19) CCC(O)C[As](=O)(O)c1ccccc1OC (stereo not given); -1.6
20) CP(=S)(c1ccccc1)P(C)(=S)c1ccccc1 (stereo not given); 5.05

---

Each entry below lists one item and its recorded growth inhibition value.
- Procedure text: NCI Yeast Anticancer Drug Screen. Data for the mec2-1 strain (AID 157)
- Experimental context: S. cerevisiae mec2-1 strain, at 50.0 µM, active compounds read high
This is part of a sample that, as a whole, favours compounds with a hit. Of some 79,000 tested, about 15% had one in any assay. Calls of active or inactive are those of the source. Cut-off read from the data, not from the text of the source: active = growth inhibition above about 70%; inactive = the rest.
Endpoint name: growth inhibition

1. CN1CN(c2ccccc2)C2(CCN(Cc3csc4ccccc34)CC2)C1=O; -31.5% (inactive)
2. CCNC1CCCCC1; -5.45% (inactive)
3. O=C(O)C(Cl)C(=O)O; -7.8% (inactive)
4. N#CC(C#N)=C(C#N)C#N; 4.6% (inactive)
5. [CH3][Sn]([CH3])([n]1cnc(N)nc1=O)[n]1cnc(N)nc1=O; 0% (inactive)
6. Cc1cc(-n2c(/C=C/c3ccc(Cl)cc3)nc3cc(Cl)ccc3c2=O)on1; -34.3% (inactive)
7. C[C@@H]1C[C@@H](O)[C@]2(O)O[C@@H]3C[C@@]4(C=O)[C@@H](CC[C@@H]5[C@@H]4CC[C@]4(C)[C@@H](C6=CC(=O)OC6)CC[C@]54O)C[C@H]3O[C@@H]2O1; -16.6% (inactive)
8. Cc1cc(CCl)c(O)c(CCl)c1; 0.5% (inactive)
9. CCC[N+]12C(O)C(CC)C3CC1C1N(C)c4ccc(Br)cc4C14CC2C3C4O (configuration not stated); 8.3% (inactive)
10. NCc1c[nH]c2ccccc12; 4.8% (inactive)
11. C=C1OC(OC)CC(N=[N+]=[N-])C1O (configuration not stated); -2.9% (inactive)
12. NC(=Nc1ccccc1)Nc1ccccc1 (tested in a mixture with another compound); -12.1% (inactive)
